TARGET_ENTITY: T1, CRBN, Q96SW2;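 further: pooled lentiviral library of zinc finger degron-EGFP fusions in mCherry-positive Jurkat cells, FACS-sorted after compound exposure, with degron abundance counted by next-generation sequencing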
T1 chain: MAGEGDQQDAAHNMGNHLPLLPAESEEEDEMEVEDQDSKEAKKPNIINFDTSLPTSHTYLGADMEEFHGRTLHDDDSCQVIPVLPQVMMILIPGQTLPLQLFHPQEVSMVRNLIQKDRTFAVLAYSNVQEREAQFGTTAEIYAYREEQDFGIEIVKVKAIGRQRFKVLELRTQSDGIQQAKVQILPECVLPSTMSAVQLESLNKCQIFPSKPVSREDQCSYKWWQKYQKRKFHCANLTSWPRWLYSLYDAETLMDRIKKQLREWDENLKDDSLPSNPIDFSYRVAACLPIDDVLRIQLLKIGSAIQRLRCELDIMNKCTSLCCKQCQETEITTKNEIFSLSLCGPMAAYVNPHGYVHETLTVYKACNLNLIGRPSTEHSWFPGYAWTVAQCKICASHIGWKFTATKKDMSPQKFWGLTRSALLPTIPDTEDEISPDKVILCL
PROTOCOL_TEXT: log2 fold change of degron read counts, EGFP-low vs EGFP+ sorted cells (limma voom), compound-induced degradation; higher = more compound-induced degradation of the degron-EGFP fusion; degrons are variants of IKZF1/3 zinc finger 2; compound dose not given here
ASSAY_CONTEXT: Jurkat; 18 h; compound: compound 19 (5-tert-butyl-thalidomide)
Over roughly 8,300 sequences, “log2 fold change of degron read counts, EGFP-low vs EGFP+ sorted cells (limma voom), compound-induced degradation” has its median near -1.1; the highest 2% begin near 3.2. The sample holds the highest values, similar sequences and a random draw of the others, so the mix is not that of the screen.
Labels assigned by log2 fold change of degron read counts range: lower: < 0.6; middle: ≥ 0.6 and < 3; upper: ≥ 3

> print(dat)
                            sequence.content  discrete.label
 1  LNCPICGFHCTQKGNLLRHIKL [46L_47N_49P_50I_52G_53F_54H_55C_67L_, Q9UKT9]          middle
 2  FACPICGARFTQKGNLLRHIKL [46F_47A_49P_50I_52G_53A_54R_55F_67L_, Q9UKT9]           upper
 3  LQCPICGFACTQKGNLLRHIKL [46L_47Q_49P_50I_52G_53F_54A_55C_67L_, Q9UKT9]          middle
 4  FACPVCGAGFTQKGNLLRHIKL [46F_47A_49P_50V_52G_53A_54G_55F_67L_, Q9UKT9]           upper
 5  FICPICGARFTQKGNLLRHIKL [46F_47I_49P_50I_52G_53A_54R_55F_67L_, Q9UKT9]           lower
 6  FHCPVCGAGFTQKGNLLRHIKL [46F_47H_49P_50V_52G_53A_54G_55F_67L_, Q9UKT9]          middle
 7  FNCEQCGAQFTQKGNLLRHIKL [46F_47N_49E_50Q_52G_53A_54Q_55F_67L_, Q9UKT9]           lower
 8  LMCPICGFHCTQKGNLLRHIKL [46L_47M_49P_50I_52G_53F_54H_55C_67L_, Q9UKT9]           lower
 9  FDCPICGARFTQKGNLLRHIKL [46F_47D_49P_50I_52G_53A_54R_55F_67L_, Q9UKT9]           upper
10  FTCPICGARFTQKGNLLRHIKL [46F_47T_49P_50I_52G_53A_54R_55F_67L_, Q9UKT9]          middle
11  FMCDICGAMFTQKGNLLRHIKL [46F_47M_49D_50I_52G_53A_54M_55F_67L_, Q9UKT9]           lower
12  LGCPICGFACTQKGNLLRHIKL [46L_47G_49P_50I_52G_53F_54A_55C_67L_, Q9UKT9]           upper
13  FICNQCGAEFTQKGNLLRHIKL [46F_47I_49N_50Q_52G_53A_54E_55F_67L_, Q9UKT9]           lower
14  FLCPQCGAQFTQKGNLLRHIKL [46F_47L_49P_50Q_52G_53A_54Q_55F_67L_, Q9UKT9]           lower
15  LDCPICGFHCTQKGNLLRHIKL [46L_47D_49P_50I_52G_53F_54H_55C_67L_, Q9UKT9]          middle
16  LQCPICGFHCTQKGNLLRHIKL [46L_47Q_49P_50I_52G_53F_54H_55C_67L_, Q9UKT9]           lower
17  FFCPICGARFTQKGNLLRHIKL [46F_47F_49P_50I_52G_53A_54R_55F_67L_, Q9UKT9]           upper
18  LLCPICGFACTQKGNLLRHIKL [46L_47L_49P_50I_52G_53F_54A_55C_67L_, Q9UKT9]          middle
19  FACNICGAGFTQKGNLLRHIKL [46F_47A_49N_50I_52G_53A_54G_55F_67L_, Q9UKT9]          middle
20  FVCPVCGAGFTQKGNLLRHIKL [46F_47V_49P_50V_52G_53A_54G_55F_67L_, Q9UKT9]           lower
21  LYCPICGFGCTQKGNLLRHIKL [46L_47Y_49P_50I_52G_53F_54G_55C_67L_, Q9UKT9]           upper
22  FFCPVCGAGFTQKGNLLRHIKL [46F_47F_49P_50V_52G_53A_54G_55F_67L_, Q9UKT9]           upper
23  FRCPVCGAGFTQKGNLLRHIKL [46F_47R_49P_50V_52G_53A_54G_55F_67L_, Q9UKT9]          middle
24  FHCPICGARFTQKGNLLRHIKL [46F_47H_49P_50I_52G_53A_54R_55F_67L_, Q9UKT9]          middle
25  FSCEICGRYFTQKGNLLRHIKL [46F_47S_49E_50I_52G_53R_54Y_55F_67L_, Q9UKT9]           lower
26  LTCPICGFHCTQKGNLLRHIKL [46L_47T_49P_50I_52G_53F_54H_55C_67L_, Q9UKT9]          middle
27  LECPICGFHCTQKGNLLRHIKL [46L_47E_49P_50I_52G_53F_54H_55C_67L_, Q9UKT9]           lower
